These entries and their values trace back to PubChem BioAssay AID1159580.

Recorded measurements of normalized growth, one per entry
test: chemical genetic growth profiling, strain panel (AID 1159580);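 note: tested at 20 µM; growth read once vehicle control cultures reached saturation at 30 °C; 1 = growth at the plate median or of vehicle wells; lower values mean less growth of the strain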; conditions: S. cerevisiae deletion strains, growth OD, locus YDR162C, strain NBP2, active compounds read low
Screen size: about 5,500 compounds; about 2,000 (36%) were called active. Not shown: some 18% with an inconclusive outcome. The list shows a part of the results.
endpoint: normalized growth

>  <compound>
COc1cc2c(cc1OC)C1(O)C(=O)c3ccc(O)c(C(=O)O)c3OC1CO2 (configuration not stated)

>  <quantitative_result>
0.993

$$$$
>  <compound>
COc1ccc2oc3ccccc3c(=O)c2c1

>  <quantitative_result>
0.437

$$$$
>  <compound>
CC(=O)OC1CC(OC(C)=O)C2(C)C(CC(OC(C)=O)C3(C)C2CCC2(C)C(c4ccoc4)OC(=O)C4OC423)C1(C)C (configuration not stated)

>  <quantitative_result>
1.01

$$$$
>  <compound>
COC(=O)[C@@H]1OC(=O)C2OC23[C@@]1(C)CCC1[C@@]2(C)CCC(=O)C(C)(C)C2C[C@@H](OC(C)=O)[C@]13C (some centres not stated)

>  <quantitative_result>
1.04

$$$$
>  <compound>
CC(C)/C(O)=C1/C(=O)O[C@@H](c2ccoc2)[C@]2(C)C(O)[C@@H](O)[C@@]34OC5(C)OC67CC(C)(C(O)[C@]6(O)[C@@H](O)[C@]3(O5)C12)[C@H](CC(=O)O)[C@]74C (some centres not stated)

>  <quantitative_result>
1.01

$$$$
>  <compound>
CC(=O)O[C@@H]1CC2C(C)(C)[C@H](O)CC[C@]2(C)C2CC[C@@]3(C)[C@H](c4ccoc4)OC(=O)[C@H]4O[C@]43[C@@]21C (some centres not stated)

>  <quantitative_result>
1.01

$$$$
>  <compound>
CC(=O)O[C@@H]1CC2C(C)(C)[C@@H](O)CC[C@]2(C)C2CC[C@@]3(C)[C@H](c4ccoc4)OC(=O)[C@H]4O[C@]43[C@@]21C (some centres not stated)

>  <quantitative_result>
0.987

$$$$
>  <compound>
CC(=O)O[C@H]1C[C@@H](OC(C)=O)C(C)(C)C2C[C@@H](OC(C)=O)[C@]3(C)C(CC[C@@]4(C)[C@H](c5ccoc5)OC(=O)[C@H]5O[C@]543)[C@]21C (some centres not stated)

>  <quantitative_result>
1.02

$$$$
>  <compound>
COc1ccc2oc(-c3ccccc3)c(OC)c(=O)c2c1

>  <quantitative_result>
0.719

$$$$
>  <compound>
Oc1c(Cl)cc(Cl)c(Cl)c1Cc1c(O)c(Cl)cc(Cl)c1Cl

>  <quantitative_result>
0.0454

$$$$
>  <compound>
O=C1CCCCC/C=C/CCCCCCCCO1

>  <quantitative_result>
1

$$$$
>  <compound>
CC(=O)O[C@@H]1CC2C(C)(C)C(=O)C3OC3[C@]2(C)C2CC[C@@]3(C)[C@H](c4ccoc4)OC(=O)C4OC43[C@@]21C (some centres not stated)

>  <quantitative_result>
1.02

$$$$
